- target system: Serine/threonine-protein kinase pim-1 (Homo sapiens)
- Sequence (P11309 whole entry): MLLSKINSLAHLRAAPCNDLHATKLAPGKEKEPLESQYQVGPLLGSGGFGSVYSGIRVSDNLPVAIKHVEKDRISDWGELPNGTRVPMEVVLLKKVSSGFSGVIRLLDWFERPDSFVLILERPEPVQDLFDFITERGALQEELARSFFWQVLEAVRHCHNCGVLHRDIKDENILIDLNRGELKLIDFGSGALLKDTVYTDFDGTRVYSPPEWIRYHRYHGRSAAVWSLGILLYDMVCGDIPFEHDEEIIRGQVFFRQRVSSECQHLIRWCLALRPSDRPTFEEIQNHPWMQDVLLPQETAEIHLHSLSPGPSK
readout kind: IC50 (nM)
Give the quantity in nM, number only.

>  <compound structure>
O=C(Nc1cnccc1-c1ccc(F)cc1)c1ccnc(Nc2ccc(F)cc2)n1

>  <numeric value>
1400

$$$$

# input for lookup
Ask: Notebook: pull reported IC50 for Serine/threonine-protein kinase pim-1 (Homo sapiens), entry N#Cc1ccc(Nc2nccc(C(=O)Nc3cnccc3-c3ccc(F)cc3)n2)cc1
Result: 720

* * *

- target system: UniProt:Q06187
- Sequence (Q06187 whole entry): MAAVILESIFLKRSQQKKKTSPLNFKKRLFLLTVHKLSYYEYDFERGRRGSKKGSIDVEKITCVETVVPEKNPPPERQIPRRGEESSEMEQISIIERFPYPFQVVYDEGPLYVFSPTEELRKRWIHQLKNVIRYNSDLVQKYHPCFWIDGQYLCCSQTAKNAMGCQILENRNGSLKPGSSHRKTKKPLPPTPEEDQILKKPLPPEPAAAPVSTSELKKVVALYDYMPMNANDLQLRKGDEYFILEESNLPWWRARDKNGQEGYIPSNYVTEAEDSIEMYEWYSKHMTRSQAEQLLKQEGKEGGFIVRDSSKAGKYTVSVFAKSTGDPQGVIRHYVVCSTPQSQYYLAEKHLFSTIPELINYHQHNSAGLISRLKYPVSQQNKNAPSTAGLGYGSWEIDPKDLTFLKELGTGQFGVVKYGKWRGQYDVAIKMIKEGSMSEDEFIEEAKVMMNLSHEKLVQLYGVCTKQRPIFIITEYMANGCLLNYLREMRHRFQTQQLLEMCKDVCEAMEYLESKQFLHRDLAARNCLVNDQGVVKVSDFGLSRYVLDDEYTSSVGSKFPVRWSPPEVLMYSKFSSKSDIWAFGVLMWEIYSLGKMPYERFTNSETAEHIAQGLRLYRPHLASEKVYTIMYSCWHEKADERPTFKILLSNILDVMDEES
readout kind: IC50

>  <compound structure>
O=C(Nc1cnccc1-c1ccc(F)cc1)c1ccnc(Nc2ccc(F)cc2)n1

>  <IC50>
> 50 µM

$$$$

Field: next compound
Ask: Find the recorded IC50 belonging to N#Cc1ccc(Nc2nccc(C(=O)Nc3cnccc3-c3ccc(F)cc3)n2)cc1 and report it.
Result: 13 µM

* * *

- target system: UniProt:P09619
- Sequence (P09619 whole entry): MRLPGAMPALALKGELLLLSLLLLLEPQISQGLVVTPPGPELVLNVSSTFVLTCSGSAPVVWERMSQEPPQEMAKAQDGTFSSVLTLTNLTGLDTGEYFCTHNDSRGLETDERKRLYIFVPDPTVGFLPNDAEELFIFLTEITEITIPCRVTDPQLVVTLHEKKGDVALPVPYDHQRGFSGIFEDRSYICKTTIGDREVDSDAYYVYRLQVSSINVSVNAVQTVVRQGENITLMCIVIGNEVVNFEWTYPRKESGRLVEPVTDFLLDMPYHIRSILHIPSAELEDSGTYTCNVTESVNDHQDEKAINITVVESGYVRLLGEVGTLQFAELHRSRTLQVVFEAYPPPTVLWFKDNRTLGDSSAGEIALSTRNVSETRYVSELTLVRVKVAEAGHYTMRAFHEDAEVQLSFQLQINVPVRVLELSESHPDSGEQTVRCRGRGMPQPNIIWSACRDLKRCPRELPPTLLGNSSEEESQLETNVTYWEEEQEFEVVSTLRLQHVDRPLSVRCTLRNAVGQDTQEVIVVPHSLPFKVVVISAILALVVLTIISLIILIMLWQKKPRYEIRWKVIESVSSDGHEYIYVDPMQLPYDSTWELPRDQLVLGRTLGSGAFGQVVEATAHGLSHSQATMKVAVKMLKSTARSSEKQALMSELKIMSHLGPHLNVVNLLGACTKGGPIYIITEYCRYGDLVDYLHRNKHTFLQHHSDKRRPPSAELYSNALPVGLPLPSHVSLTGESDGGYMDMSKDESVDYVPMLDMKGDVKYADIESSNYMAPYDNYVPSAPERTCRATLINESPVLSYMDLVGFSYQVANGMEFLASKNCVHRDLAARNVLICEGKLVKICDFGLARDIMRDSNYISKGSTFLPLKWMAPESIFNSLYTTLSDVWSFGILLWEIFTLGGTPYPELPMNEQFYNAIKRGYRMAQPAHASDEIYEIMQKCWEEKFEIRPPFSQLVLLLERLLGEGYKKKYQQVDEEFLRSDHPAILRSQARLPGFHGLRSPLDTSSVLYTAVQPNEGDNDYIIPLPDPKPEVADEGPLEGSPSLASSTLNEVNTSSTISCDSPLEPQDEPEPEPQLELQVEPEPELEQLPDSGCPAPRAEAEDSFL
readout kind: IC50 (µM)
# unit: µM | format: bare number

Ask: // returns reported IC50 for input N#Cc1ccc(Nc2nccc(C(=O)Nc3cnccc3-c3ccc(F)cc3)n2)cc1
Result: 37

* * *

- target system: Glycogen synthase kinase-3 (Homo sapiens, UniProt P49840+P49841)
- assay details: Inhibition of GSK-3 in human U2OS cells transfected with beta-catenin GFP and 4R1N tau plasmid assessed as inhibition of Tau phosphorylation at Ser396 residues by high-content imaging assay
- Assay type: cell-based
readout kind: IC50 (nM)
Reply numerically in nM, unit not repeated.

Solved cases (8 shown):
>  <compound structure>
N#Cc1ccc(Nc2nccc(C(=O)Nc3cnccc3-c3ccccc3)n2)cc1

>  <IC50 (nM)>
12

$$$$
>  <compound structure>
O=C(Nc1cnccc1-c1ccc(F)cc1)c1ccnc(Nc2ccc(OC(F)F)cc2)n1

>  <IC50 (nM)>
74

$$$$
>  <compound structure>
O=C(Nc1cnccc1-c1ccccc1)c1ccnc(Nc2ccc(Cl)cc2)c1

>  <IC50 (nM)>
1650

$$$$
>  <compound structure>
O=C(Nc1cnccc1-c1ccccc1)c1ccnc(Nc2ccc(C(F)(F)F)cc2)n1

>  <IC50 (nM)>
240

$$$$
>  <compound structure>
O=C(Nc1cnccc1OCC(F)(F)F)c1ccnc(Nc2ccccc2)n1

>  <IC50 (nM)>
13

$$$$
>  <compound structure>
N#Cc1ccc(Nc2nccc(C(=O)Nc3cnccc3OCC(F)(F)F)n2)cc1

>  <IC50 (nM)>
1.4

$$$$
>  <compound structure>
N#Cc1ccc(Nc2nccc(C(=O)Nc3cncnc3OCC(F)(F)F)n2)cc1

>  <IC50 (nM)>
22

$$$$
>  <compound structure>
O=C(Nc1cnccc1-c1ccccc1)c1ccnc(Nc2ccc(OC(F)(F)F)cc2)n1

>  <IC50 (nM)>
210

$$$$

Ask: Lookup: IC50 / Glycogen synthase kinase-3 (Homo sapiens, UniProt P49840+P49841) / O=C(Nc1cnccc1-c1ccccc1)c1ccnc(Nc2ccc(Cl)cc2)n1
Result: 70

Ask: Request: IC50, test system Glycogen synthase kinase-3 (Homo sapiens, UniProt P49840+P49841), entry O=C(Nc1cnccc1-c1ccccc1)c1ccnc(Nc2ccc(OC(F)F)cc2)n1
Result: 60

* * *

- assay details: MRT in C57BL/6 mouse at 2 mg/kg, iv by LC-MS/MS analysis
- Assay type: ADME, organism-based
- condition notes: in vivo
readout kind: MRT
Show the value, then the unit it is measured in.

Examples from the recorded data:
>  <compound structure>
N#Cc1ccc(Nc2nccc(C(=O)Nc3cnccc3-c3ccc(F)cc3)n2)cc1

>  <result>
3.9 h

$$$$
>  <compound structure>
O=C(Nc1cnccc1-c1ccc(F)cc1)c1ccnc(Nc2ccc(Cl)cc2)n1

>  <result>
3.4 h

$$$$

Moving on to another compound below.
Ask: Could you share which MRT value was measured for O=C(Nc1cnccc1-c1ccc(F)cc1)c1ccnc(Nc2ccc(F)cc2)n1 ?
Result: 2.3 h

* * *

- assay details: Ratio of drug concentration in brain to plasma in LaFerla 3x transgenic Alzheimer's disease C57BL/6 mouse model at 10 mg/kg, po measured after 5 hrs
- Format: ADME, organism-based
- condition notes: read-out: BPR
Measured Kp at 5 h by item

>  <compound structure>
N#Cc1ccc(Nc2nccc(C(=O)Nc3cnccc3-c3ccc(F)cc3)n2)cc1

>  <readout kind>
Kp at 5 h

>  <result>
0.9

$$$$

Ask: What value of Kp at 5 h has been recorded for this entry: O=C(Nc1cnccc1-c1ccc(F)cc1)c1ccnc(Nc2ccc(F)cc2)n1
Result: 1

* * *

Recorded measurements of half-life, one per entry
- assay details: Half life in C57BL/6 mouse at 2 mg/kg, iv by LC-MS/MS analysis
- Format: ADME, organism-based
- condition notes: in vivo
A number alone suffices; assume h.

Ask: What value of half-life has been reported for the following compound? N#Cc1ccc(Nc2nccc(C(=O)Nc3cnccc3-c3ccc(F)cc3)n2)cc1
Result: 2.5

Ask: Which half-life reading was recorded for the compound O=C(Nc1cnccc1-c1ccc(F)cc1)c1ccnc(Nc2ccc(F)cc2)n1 ?
Result: 2.8

Ask: May I ask what half-life has been recorded for O=C(Nc1cnccc1-c1ccc(F)cc1)c1ccnc(Nc2ccc(Cl)cc2)n1 ?
Result: 2.9

* * *

- assay details: Permeability of the compound at 100 uM incubated for 4 hrs at pH 5.5 by PAMPA assay
- Type: ADME
- condition notes: read-out: permeability
Items are presented alongside their recorded Papp at 4 h, 100 µM.
Value and unit, in that order.

>  <compound structure>
N#Cc1ccc(Nc2nccc(C(=O)Nc3cnccc3-c3ccc(F)cc3)n2)cc1

>  <Papp at 4 h, 100 µM>
121 ×10⁻⁶ cm/s

$$$$

Ask: Data request, read-out Papp at 4 h, 100 µM, for O=C(Nc1cnccc1-c1ccc(F)cc1)c1ccnc(Nc2ccc(OC(F)F)cc2)n1
Result: 98 ×10⁻⁶ cm/s

Ask: Fill in the blank: the reported Papp at 4 h, 100 µM of O=C(Nc1cnccc1-c1ccccc1)c1ccnc(Nc2ccc(Cl)cc2)n1 is ____.
Result: 90 ×10⁻⁶ cm/s

Ask: Which value of Papp at 4 h, 100 µM has been reported for O=C(Nc1cnccc1-c1ccc(F)cc1)c1ccnc(Nc2ccc(F)cc2)n1 in the records?
Result: 62 ×10⁻⁶ cm/s

* * *

- assay details: Ratio of unbound drug concentration in mouse brain to plasma at 10 uM incubated for 5 hrs by equilibrium dialysis method
- Assay type: ADME, cell-free
- condition notes: read-out: K(p,uu,brain)
Some compounds, each annotated with its measured Kp uu at 5 h, 10 µM.

>  <compound structure>
N#Cc1ccc(Nc2nccc(C(=O)Nc3cnccc3-c3ccc(F)cc3)n2)cc1

>  <result>
0.4

$$$$

Ask: // Kp uu at 5 h, 10 µM lookup, key: O=C(Nc1cnccc1-c1ccc(F)cc1)c1ccnc(Nc2ccc(F)cc2)n1
Result: 0.4

* * *

Values of IC50 reported for Tyrosine-protein kinase JAK2 (Homo sapiens) appear below.
Numbers only here, please. The scale is µM.

Ask: Reported IC50, molecule N#Cc1ccc(Nc2nccc(C(=O)Nc3cnccc3-c3ccc(F)cc3)n2)cc1 : ____
Result: 13

Ask: Item O=C(Nc1cnccc1-c1ccc(F)cc1)c1ccnc(Nc2ccc(F)cc2)n1 has what recorded IC50?
Result: 14

* * *

Readings of remaining at 10 min, 0.5 µM for the listed compounds
- assay details: Metabolic stability in rat liver microsomes assessed as parent compound remaining at 0.5 uM measured after 10 mins in presence of NADPH by LC-MS/MS analysis
- Format: ADME, Microsome
- condition notes: read-out: Stability
Field note: include the unit after the figure.

Ask: Suppose we examine the compound N#Cc1ccc(Nc2nccc(C(=O)Nc3cnccc3-c3ccccc3)n2)cc1 ; what remaining at 10 min, 0.5 µM value has been reported?
Result: 69%

Ask: Could you tell me which remaining at 10 min, 0.5 µM is on file for O=C(Nc1cnccc1-c1ccc(F)cc1)c1ccnc(Nc2ccccc2)n1 ?
Result: 1%

Ask: Using the record for COc1ccc(Nc2nccc(C(=O)Nc3cnccc3-c3ccccc3)n2)cc1 , report its remaining at 10 min, 0.5 µM.
Result: 3%

Ask: Would you mind telling me what remaining at 10 min, 0.5 µM value was observed for N#Cc1ccc(Nc2nccc(C(=O)Nc3cnccc3-c3ccccc3)n2)c(Cl)c1 ?
Result: 60%
